# melting point per entry

>>> obs_value("CONC(=O)Cc1ccc(-c2noc(C(F)(F)F)n2)c(F)c1")
"131 to 133 °C"
>>> obs_value("CONC(=O)c1ccc(-c2noc(C(F)(F)F)n2)cc1F")
"122 to 125 °C"
>>> obs_value("CC(CC#N)ONC(=O)c1ccc(-c2noc(C(F)(F)F)n2)cc1F (centres unmarked)")
"85.8 to 88 °C"
>>> obs_value("O=C(NOCC(F)F)c1ccc(-c2noc(C(F)(F)F)n2)c(F)c1")
"138 to 140 °C"

Next item in the queue.
In plain terms, CCONC(=O)c1ccc(-c2noc(C(F)(F)F)n2)c(F)c1 has a documented melting point of 139 to 144 °C

* * *

Property label: melting point

Recorded results for 5 compounds are shown here.
>>> obs_value("O=C(c1ccc(-c2noc(C(F)(F)F)n2)cc1F)N1CCCO1")
"60.3 to 62.4 °C"
>>> obs_value("O=C(NOCC(F)F)c1ccc(-c2noc(C(F)(F)F)n2)cc1")
"134 to 137 °C"
>>> obs_value("O=C(Cc1ccc(-c2noc(C(F)(F)F)n2)cc1F)NOCC(F)F")
"114 to 116 °C"
>>> obs_value("O=C(NOCc1ccccc1)c1ccc(-c2noc(C(F)(F)F)n2)c(F)c1")
"178 to 181 °C"
>>> obs_value("O=C(c1ccc(-c2noc(C(F)(F)F)n2)cc1)N1OC2C=CC1CC2 (stereo not drawn)")
"89 °C"

In plain terms, CONC(=O)Cc1ccc(-c2noc(C(F)(F)F)n2)cc1F has a documented melting point of 150 to 152 °C

* * *

Property label: melting point

Recorded results for 2 molecules are shown here.
>>> obs_value("O=C(c1ccc(-c2noc(C(F)(F)F)n2)cc1F)N1CCCCO1")
"57.3 to 59.4 °C"
>>> obs_value("C#CCONC(=O)c1ccc(-c2noc(C(F)(F)F)n2)cc1")
"167 to 169 °C"

Next item in the queue.
In plain terms, CCONC(=O)Cc1ccc(-c2noc(C(F)(F)F)n2)c(F)c1 has a documented melting point of 150 to 152 °C
